Data provenance is paper PMC11046469.

Reported Selectivity (ENL:AF9) from BLI KD values is given for each of the following molecules.
# Tested on: ENL YEATS domain (His-ENL) (Homo sapiens, UniProt Q03111)
# Construct: (aa 1−148) was cloned in pET19b; made in house; host or cells: E. coli BL21(DE3pLysS)
# Method notes: Biolayer interferometry (BLI) binding to ENL YEATS
# Run conditions: ratio KD,AF9 / KD,ENL
# Text: To test the inhibition potency of the two selected peptides for the ENL YEATS domain, ENL-S1 and ENL-S2 were chemically synthesized through solid-phase peptide synthesis (SPPS) and evaluated by an AlphaScreen assay. […] We then assessed the binding affinity of two ligands for the ENL YEATS domain using biolayer interferometry (BLI). […]
Where a SMILES comes first, the peptide text is derived from it. The star is where a group is joined. Oxazole(5-CO) = O=C(c1cnco1)*; Crotonyl(E) = C/C=C/C(=O)*; 2Furoyl = O=C(c1ccco1)*; Butyryl = CCCC(=O)*
Reported property: Selectivity (ENL:AF9) from BLI KD values (fold)

{"columns": ["Molecule", "Meas value"],
 "data": [
  ["CC(C)[C@H](NC(=O)[C@H](CC(=O)O)NC(=O)[C@@H](N)Cc1ccc(O)cc1)C(=O)N[C@@H](Cc1ccc(O)cc1)C(=O)N[C@@H](CS)C(=O)N[C@@H](Cc1ccc(O)cc1)C(=O)N[C@@H](CCCCNC(=O)c1cnco1)C(N)=O [ENL-S1o] (H-YDVYCYK(Oxazole(5-CO))-NH2)", 27.6],
  ["CCCC(=O)NCCCC[C@H](NC(=O)[C@H](Cc1ccc(O)cc1)NC(=O)[C@H](CS)NC(=O)[C@H](Cc1ccc(O)cc1)NC(=O)[C@@H](NC(=O)[C@H](CC(=O)O)NC(=O)[C@@H](N)Cc1ccc(O)cc1)C(C)C)C(N)=O [ENL-S1] (H-YDVYCYK(Butyryl)-NH2)", 5.6],
  ["CC(C)[C@H](NC(=O)[C@H](CC(=O)O)NC(=O)[C@@H](N)Cc1ccc(O)cc1)C(=O)N[C@@H](Cc1ccc(O)cc1)C(=O)N[C@@H](CS)C(=O)N[C@@H](Cc1ccc(O)cc1)C(=O)N[C@@H](CCCCNC(=O)c1ccco1)C(N)=O [ENL-S1f] (H-YDVYCYK(2Furoyl)-NH2)", 14.0],
  ["CC(=O)N[C@H](C(=O)N[C@@H](Cc1ccc(O)cc1)C(=O)N[C@@H](CS)C(=O)N[C@@H](Cc1ccc(O)cc1)C(=O)N[C@@H](CCCCNC(=O)c1ccco1)C(N)=O)C(C)C [tENL-S1f] (Ac-VYCYK(2Furoyl)-NH2)", 12.0],
  ["C/C=C/C(=O)NCCCC[C@H](NC(=O)[C@H](Cc1ccc(O)cc1)NC(=O)[C@H](CS)NC(=O)[C@H](Cc1ccc(O)cc1)NC(=O)[C@@H](NC(=O)[C@H](CC(=O)O)NC(=O)[C@@H](N)Cc1ccc(O)cc1)C(C)C)C(N)=O [ENL-S1c] (H-YDVYCYK(Crotonyl(E))-NH2)", 9.1]
]}

###

Reported percent (share of sequence reads) is given for each of the following substances.
# Tested on: ENL YEATS domain (AviSUMO-ENL YEATS) (Homo sapiens, UniProt Q03111)
# Construct: encoding ENL YEATS (aa 1−148) was cloned in pET28a-; made in house; host or cells: E. coli BL21(DE3pLysS), co-expressed with BirA (pBirAcm)
# Sequence (Q03111 1-148): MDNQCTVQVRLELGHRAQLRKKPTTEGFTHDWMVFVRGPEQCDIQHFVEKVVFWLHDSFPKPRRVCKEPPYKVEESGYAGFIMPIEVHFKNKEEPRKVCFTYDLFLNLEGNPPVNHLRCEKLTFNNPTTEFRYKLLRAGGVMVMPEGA
# Method notes: Phage panning of BuK-containing 7-mer library against AviSUMO-ENL YEATS with Illumina NGS abundance
# Run conditions: sheet ENLR3: round 3 of panning against ENL YEATS; TAG = amber codon (BuK); 7-mer library positions V1-V7
Reported property: percent (share of sequence reads) (%)

{"columns": ["Substance", "Meas value"],
 "data": [
  ["CWIIETAGG", 0.02003],
  ["QCGPRYD", 0.01002],
  ["WWIIEKG", 0.001821],
  ["FLYTAGMPV", 0.0009106],
  ["CYDLCYG", 0.0009106],
  ["HYFLFTAGG", 0.0009106],
  ["MFTAGITDN", 0.0009106],
  ["QCVPRTAGD", 0.004553],
  ["YDVYCTAGTAG", 0.002732],
  ["ILIYTAGGD", 0.003642],
  ["HVIYCYTAG", 0.001821],
  ["CCWTAGGGN", 0.001821],
  ["WWIIEYG", 0.02641],
  ["LNAEFTAGA", 0.0009106],
  ["SMHACTAGT", 0.001821],
  ["CDVYCYTAG", 0.009106],
  ["QCGQRTAGD", 0.009106],
  ["YDVYSYTAG", 0.002732],
  ["VYCYTAGVW", 0.002732],
  ["WWIITAGTAGG", 0.0173],
  ["HYVLFYG", 0.0009106],
  ["WWVIETAGG", 0.003642],
  ["HCVLFTAGG", 0.0009106],
  ["YNVYCYTAG", 0.009106],
  ["WWIIETAGG", 30.359],
  ["WWIVETAGG", 0.005464],
  ["HLTLFTAGV", 0.003642],
  ["YLYTAGFPC", 0.004553],
  ["HSTLFTAGG", 0.001821],
  ["YDFYCYTAG", 0.04644],
  ["QCGTRTAGD", 0.01184],
  ["QFGPRTAGD", 0.005464],
  ["YDVYFYTAG", 0.0428],
  ["YDAYCYTAG", 0.01002],
  ["KVTAGGGGV", 0.0009106],
  ["HLTLFTAGC", 0.001821],
  ["YDVYCHTAG", 0.01184],
  ["YGVYCYTAG", 0.01184],
  ["SLMMCQTAG", 0.001821],
  ["WWIIEWG", 0.002732],
  ["HHVLFTAGG", 0.0009106],
  ["WCGPRTAGD", 0.001821],
  ["YDVYCYQ", 0.01366],
  ["IRCHPWTAG", 0.0009106],
  ["YDDYCYTAG", 0.001821],
  ["YDIYCYTAG", 0.002732],
  ["HYVLFTAGW", 0.0009106],
  ["YVGPWTAGG", 0.03734],
  ["HSWFTAGDG", 0.0009106],
  ["CTAGGGSLF", 0.0009106],
  ["HDVYCYTAG", 0.01184],
  ["NCPTAGFNL", 0.0009106],
  ["WWIIETAGE", 0.009106],
  ["SWYITFTAG", 0.07194],
  ["WLIIETAGG", 0.02732],
  ["YAIYCYTAG", 0.006374],
  ["HMTLFTAGG", 0.0009106],
  ["WLIIETAGD", 0.001821],
  ["WWTIETAGG", 0.001821],
  ["YLYYVPC", 0.005464],
  ["YYVYCYTAG", 0.0346],
  ["LLIIETAGG", 0.0009106],
  ["CPCWTAGLL", 0.0009106],
  ["IMCYPFTAG", 0.0255],
  ["CHNWICTAG", 0.0009106],
  ["TAGCGPRTAGD", 0.002732]
]}
